System: A2780
Experiment: Cytotoxicity against human A2780 cells after 72 hrs by MTT assay
Format: functional, cell-based
Settings: A2780, 72 h
Quick list: IC50 per entry.
Please state the figure in µM; there is no need to write the unit.

C[C@@H]1CC[C@@]2(OC1)O[C@H]1C[C@H]3[C@@H]4CC=C5C[C@@H](O[C@@H]6O[C@H](CO)[C@@H](O[C@@H]7O[C@@H](C)[C@H](O)[C@@H](O)[C@H]7O)[C@H](O)[C@H]6O[C@@H]6O[C@@H](C)[C@H](O)[C@@H](O)[C@H]6O)CC[C@]5(C)[C@H]4CC[C@]3(C)[C@H]1[C@@H]2C 4.46
Nc1ccn([C@@H]2O[C@H](CO)[C@@H](O)C2(F)F)c(=O)n1 0.31
CO[C@]1(CC[C@@H](C)CO)O[C@H]2C[C@H]3[C@@H]4CC=C5C[C@@H](O[C@H]6O[C@H](CO)[C@@H](O)[C@H](O)[C@H]6O[C@@H]6O[C@@H](C)[C@H](O)[C@@H](O)[C@H]6O)CC[C@]5(C)[C@H]4CC[C@]3(C)[C@H]2[C@@H]1C 7.8

Here's the next entry for you.
Record `CO[C@]1(CC[C@@H](C)CO)O[C@H]2C[C@H]3[C@@H]4CC=C5C[C@@H](O[C@@H]6O[C@H](CO)[C@@H](O)[C@H](O)[C@H]6O[C@@H]6O[C@@H](C)[C@H](O)[C@@H](O)[C@H]6O)CC[C@]5(C)[C@H]4CC[C@]3(C)[C@H]2[C@@H]1C` / A2780, IC50 recorded as 7.2
